Entry source: patent US12577262B2

- Test system: A549 lung cancer cells
- experimental protocol: Cell proliferation, 72 h IC50 (Table 3)
- Type: cell-based, human
- condition description: read-out: 72 h IC50, 3-5 separate experiments
pIC50: −log10 of the molar value.
assay metric: pIC50

>>> experimental_result("CC(=O)OC[C@H]1O[C@@H]([S-])[C@H](OC(C)=O)[C@@H](OC(C)=O)[C@@H]1OC(C)=O.CCP(CC)CC.[Au+]")
5.78
>>> experimental_result("N.N.[Cl][Pt][Cl] [Cisplatin]")
5.99
>>> experimental_result("O=C1[O][Pt]2([NH][C@@H]3CCCC[C@H]3[NH]2)[O]C1=O")
6.01
